tested on: NCI-H1395; assay: relative viability (nuclei count vs DMSO), 5 days (fraction); higher = more cells survive; conditions: first compound 0.1 µM
Measurement type: relative viability

Cc1cn(-c2cc(NC(=O)c3ccc(C)c(Nc4nccc(-c5cccnc5)n4)c3)cc(C(F)(F)F)c2)cn1 [Nilotinib] + CCNC(=O)c1noc(-c2cc(C(C)C)c(O)cc2O)c1-c1ccc(CN2CCOCC2)cc1 [Luminespib] (partner 0.01 µM) | 0.814
Cc1cn(-c2cc(NC(=O)c3ccc(C)c(Nc4nccc(-c5cccnc5)n4)c3)cc(C(F)(F)F)c2)cn1 [Nilotinib] + Nc1ncn([C@H]2C[C@H](O)[C@@H](CO)O2)c(=O)n1 [Decitabine] (partner 2 µM) | 0.891
Cc1cn(-c2cc(NC(=O)c3ccc(C)c(Nc4nccc(-c5cccnc5)n4)c3)cc(C(F)(F)F)c2)cn1 [Nilotinib] + CC(=O)c1c(C)c2cnc(Nc3ccc(N4CCNCC4)cn3)nc2n(C2CCCC2)c1=O [Palbociclib] (partner 0.5 µM) | 0.599
Cc1cn(-c2cc(NC(=O)c3ccc(C)c(Nc4nccc(-c5cccnc5)n4)c3)cc(C(F)(F)F)c2)cn1 [Nilotinib] + C[C@]1(O)C[C@@H](c2nc(-c3ccc4ccc(-c5ccccc5)nc4c3)c3c(N)nccn32)C1 [Linsitinib] (partner 1 µM) | 0.759
Cc1cn(-c2cc(NC(=O)c3ccc(C)c(Nc4nccc(-c5cccnc5)n4)c3)cc(C(F)(F)F)c2)cn1 [Nilotinib] + Cc1cc(Nc2cc(N3CCN(C)CC3)nc(Sc3ccc(NC(=O)C4CC4)cc3)n2)n[nH]1 [Tozasertib] (partner 0.1 µM) | 0.736
